These measurements were taken from ChEMBL document CHEMBL1201862.

- Test system: MOLT-4
- assay notes: NCI tumour cell line growth inhibition, 48 h
Active and inactive are the calls of the source. No stated cut-off is given here; in the data, active = GI50 up to about 1.1 µM and inactive = higher.
Recorded GI50 by entry

| compound | GI50 |
| --- | --- |
| COC(=O)C1(NC(=O)C(Cc2ccccc2)N(C(=O)OC(C)(C)C)C(=O)OC(C)(C)C)CCCC1 (stereo not given) | 31.8 µM (inactive) |
| Oc1ccc2c(O)cc(-c3ccccc3)nc2c1 | 21.1 µM (inactive) |
| NC(=S)N/N=C1\CCCCC1C(O)(C(F)(F)Cl)C(F)(F)Cl (stereo not given) | > 10 µM (inactive) |
| O=C1/C(=C/c2cc3c(=O)c4ccccc4sc3s2)NC(=S)N1c1ccccc1 | 24.5 µM (inactive) |

Turning now to a further record.
Any idea what GI50 was measured for CC(NC(CC12CC3CC(CC(C3)C1)C2)C(N)=O)c1ccccc1 (stereo not given) ?
16.2 µM (inactive)

----------
- Tested on: NCI/ADR-RES
- assay notes: NCI tumour cell line growth inhibition, 48 h
Active and inactive are the calls of the source. Cut-off read from the data, not from the text of the source: active = GI50 up to about 1.1 µM and inactive = higher.
Listed next: entries and their corresponding GI50.

# annotated cases, reported GI50 shown
| compound | measured target | GI50 |
| --- | --- | --- |
| Cc1csc2nc(-c3cccc([N+](=O)[O-])c3)c(/C=N/N=C(N)N)n12 | NCI/ADR-RES | 6.27 µM (inactive) |
| O=C1NI(C#Cc2ccccc2)c2ccccc21 | NCI/ADR-RES | > 100 µM (inactive) |
| O=C1NC2(CCCCC2)C(=O)N1CCN(CCCl)CCCl | NCI/ADR-RES | 136 µM (inactive) |
| C[C@@H](c1ccccc1)n1c(N)c(-c2ccccn2)c2ccc([N+](=O)[O-])cc2c1=O | NCI/ADR-RES | 26.9 µM (inactive) |
| Cc1cc(SCC(=O)c2ccccc2)nc2ccccc12 | NCI/ADR-RES | > 100 µM (inactive) |
| Cc1cc(Br)cc(C)c1NC(=O)C(=O)C1C(=O)C(CC2C(=O)c3ccccc3C2=O)C(=O)CC1(C)C (stereo unspecified) | NCI/ADR-RES | 86.5 µM (inactive) |
| COC1O[C@H]2[C@H]3[C@@H]1[C@@H](OS(=O)(=O)c1ccc(C)cc1)C(=O)N3C[C@H]2O (stereo partly specified) | NCI/ADR-RES | > 100 µM (inactive) |
| Cc1cc2nn(C3CCCCO3)nc2cc1C (stereo unspecified) | NCI/ADR-RES | > 100 µM (inactive) |
| CC1CCC2c3c([nH]c4ccccc34)C3C(=O)N(C4CCCCC4)C(=O)C3C2C1 (stereo unspecified) | NCI/ADR-RES | 36.5 µM (inactive) |
| COC1=CCC2=C(CCN(C(=O)C3CCC3)C2Cc2ccc(OC)c(O)c2)C1 (stereo unspecified) | NCI/ADR-RES | 9.82 µM (inactive) |

What measured GI50 is associated with CCN(CCN(CC)C(=O)Nc1ccccc1)C(=O)Nc1ccccc1 on NCI/ADR-RES?
> 100 µM (inactive)

Field entry: CC(NC(CC12CC3CC(CC(C3)C1)C2)C(N)=O)c1ccccc1 (stereo unspecified)
17.8 µM (inactive)

// same read-out, input: COc1cc(C2c3cc4c(cc3OC(N3CCCC3)C2C)OCO4)cc(OC)c1O (stereo unspecified)
5.93 µM (inactive)
